parameter-measured: IC50 (µM)
Answer with a number only, understood to be in µM.

Would you please give the reported IC50 of CCC(Oc1c(C)cccc1C)C(=O)O[C@H]1C[C@H](O)C=C2C=C[C@H](C)[C@H](CC[C@@H](O)C[C@@H](O)CC(=O)O)[C@H]21 (some centres unmarked) [Example 6] with HMG-CoA reductase (Rattus norvegicus)? 0.0335

Would you please give the reported IC50 of CCC(Oc1ccc(C)cc1)C(=O)O[C@H]1C[C@H](O)C=C2C=C[C@H](C)[C@H](CC[C@@H](O)C[C@@H](O)CC(=O)O)[C@H]21 (some centres unmarked) [Example 3] with HMG-CoA reductase (Rattus norvegicus)? 0.0306
